# System: SW-620 colon
# procedureText: NCI tumour cell line growth inhibition, 48 h
The molecules listed here are annotated with their TGI.

Answered cases to consult:
{"molecule": "BrCc1ccc(CBr)c2c1-c1c(CBr)ccc3ccc(CBr)c-2c13", "measuredResult": "> 100 µM"}
{"molecule": "CC(=O)N(CC(=O)C(=O)NNc1ccoc1)c1ccc(Cl)cc1", "measuredResult": "> 100 µM"}
{"molecule": "C/C(=N\\NC(=O)C(N)=O)c1c(O)cc(C)oc1=O", "measuredResult": "> 100 µM"}

Under SW-620 colon: TGI value of O=C(O)C12CC3CC(C1)C2C=C3P(=O)(O)O (stereo unspecified) ? > 100 µM

Under SW-620 colon: TGI value of CN1CCC/C1=C1/C(=O)N(c2ccccc2)N=C1c1ccc[nH]1 ? > 100 µM

Under SW-620 colon: TGI value of COCCOCCOCCOCCOC(=O)OC[n+]1ccc(NC(=NCCCCCCOc2ccc(Cl)cc2)NC#N)cc1 ? 16.3 µM

====

The molecules listed here are annotated with their TGI.
# System: UACC-257 melanoma
# procedureText: NCI tumour cell line growth inhibition, 48 h

Answered cases to consult:
{"molecule": "Nc1nc2c(ncn2CCCC(c2ccccc2)P(=O)(O)O)c(=O)[nH]1 (stereo not given)", "systemName": "UACC-257 melanoma", "TGI": "> 100 µM"}
{"molecule": "CN(C)c1nc(N)c(C#N)c(C#N)c1C#N", "systemName": "UACC-257 melanoma", "TGI": "> 10 µM"}
{"molecule": "O=S(=O)(O)c1ccc2cc(N=Nc3c(O)ccc4ccccc34)ccc2c1", "systemName": "UACC-257 melanoma", "TGI": "> 100 µM"}
{"molecule": "CCOC(=O)C(Cc1ccc(N(CCCl)CCCl)cc1)NC(=O)C(Cc1ccccc1)NC(C)=O (stereo not given)", "systemName": "UACC-257 melanoma", "TGI": "> 0.486 µM"}
{"molecule": "CC(C)N(Cc1ccc(F)cc1)c1ccc(CO)c(Cl)c1", "systemName": "UACC-257 melanoma", "TGI": "0.316 µM"}

// next item, TGI requested
Under UACC-257 melanoma: TGI value of CNC(=O)CCCNC(=O)CCCC(=O)OC ? > 100 µM

====

# System: SNB-19 CNS
# procedureText: NCI tumour cell line growth inhibition, 48 h
propertyMeasured: TGI

Answered cases to consult:
{"compound": "Cc1ccc(C2=Nc3ccccc3SC(c3cccc4c3OCO4)C2)cc1 (stereo not given)", "measuredResult": "30.7 µM"}
{"compound": "N#Cc1cc2c(cc1Cl)Sc1nnc(Nc3cccc4ccccc34)n1S2(=O)=O", "measuredResult": "4.29 µM"}
{"compound": "CC1CC(N2CCOCC2)=Nc2ccccc2N1Cc1ccccc1 (stereo not given)", "measuredResult": "> 100 µM"}
{"compound": "O=C(c1c(O)cc(O)cc1O)C1Cc2ccccc21 (stereo not given)", "measuredResult": "> 100 µM"}
{"compound": "C=CCNC(=O)CN(CC(=O)O)C1CCCCC1N(CC(=O)O)CC(=O)O (stereo not given)", "measuredResult": "> 100 µM"}
{"compound": "CC(C)(C)c1cc(C(=O)O)c2c(c1)C(=O)OC2(c1ccccc1)c1ccccc1C(=O)O (stereo not given)", "measuredResult": "> 100 µM"}

So what's the measured TGI for this one? CC(C)N(C(=O)C12C3C4C1C1C2C3C41C(=O)N(C(C)C)C(C)C)C(C)C (stereo not given) > 50 µM

So what's the measured TGI for this one? COCCOCCOCCOCCOC(=O)OC[n+]1ccc(NC(=NCCCCCCOc2ccc(Cl)cc2)NC#N)cc1 18.3 µM

So what's the measured TGI for this one? C/C(=N\NC(=S)N1CCN(c2ccccn2)CC1)c1ncccn1 19 µM

So what's the measured TGI for this one? COc1ccc(-c2[nH]c3ccccc3c2/C=C(\C#N)S(=O)(=O)c2ccccc2)cc1 > 100 µM
